System: HBeAg
Assay: PHH natural infection assay, HBeAg (alphalisa)
Assay type: cell-based, HBV
Conditions: Hepatitis B virus, read-out: HBeAg IC50
pIC50: −log10 of the molar value.
recorded endpoint: pIC50

> print(dat)
                                    compound  value.measured
 1  O=C(Nc1ccc(-c2nc3cccc(F)c3o2)cc1)C1C2COCC21 (stereo not shown)            5.96
 2   CC(C)OC(=O)Nc1ccc(-c2nc3c(F)cccc3o2)cc1            5.52
 3      O=C(Nc1ccc(-c2nc3cccnc3o2)cc1)C1COC1            5.37
 4  O=C(Nc1ccc(-c2nc3c(F)cc(F)cc3o2)cc1)C1CCOC1 (stereo not shown)            5.70
 5  O=C(Nc1ccc(-c2nc3cccnc3o2)cc1)C1CCOC1 (stereo not shown)            5.48
 6  CC(O)C(=O)Nc1ccc(-c2nc3c(F)cccc3o2)cc1 (stereo not shown)            5.75
 7  O=C(Nc1ccc(-c2nc3c(F)cccc3o2)cc1)C1CCS(=O)(=O)CC1            5.55
 8  CC(O)C(=O)Nc1ccc(-c2nc3cc(Cl)ccc3o2)cc1 (stereo not shown)            5.60
 9  CC1(C(=O)Nc2ccc(-c3nc4c(F)cccc4o3)cc2)CC(=O)C1            5.37
10  COc1ccc2nc(-c3ccc(NC(=O)C4CCOC4)cc3)oc2n1 (stereo not shown)            5.58
11   O=C(Nc1ccc(-c2nc3cccc(F)c3o2)cc1)C1COC1            5.84
12  O=C(Nc1ccc(-c2nc3ccc(F)cc3o2)cc1)C1CCSCC1            6.19
13  O=C(Nc1ccc(-c2nc3cccc(F)c3o2)cc1)OC1CCOC1 (stereo not shown)            5.37
14  Cc1ccc2nc(-c3ccc(NC(=O)C4CCOC4)cc3)oc2n1 (stereo not shown)            4.76
15  O=C(Nc1ccc(-c2nc3cccc(F)c3o2)cc1)C1CCS(=O)(=O)C1 (stereo not shown)            6.20
16  O=C(Nc1ccc(-c2nc3ccc(Cl)cc3o2)cc1)C1CCS(=O)(=O)C1 (stereo not shown)            5.36
17  O=C(Nc1ccc(-c2nc3cc(Cl)ccc3o2)cc1)c1ncco1            5.69
18  CC(O)C(=O)Nc1ccc(-c2nc3ccc(F)cc3o2)cc1 (stereo not shown)            5.89
19  O=C(Nc1ccc(-c2nc3cccc(F)c3o2)cc1)C1CC1(F)F (stereo not shown)            6.15

Reference source for all entries: patent US20230286930A1
